System: BT-549 breast
Assay protocol: NCI-60 one-dose screen, 48 h
Test context: 10 µM unless noted
Protocol: Growth inhibition of the BT-549 human tumor cell line is measured as a screen for anti-cancer activity. Cells are grown in 96 well plates and exposed to the test compound for 48 hours. Compounds are tested at a single concentration, which is 10^-5 M for most compounds. The reported endpoint is percent growth (GI% or GIPRCNT), where numbers from 0 - 100% represent growth inhibition, and numbers from -100% - 0 represent cell death. For example, a value of 40 represents 60% growth inhibition. […]
Compounds without any hit were thinned out: in the full panel of roughly 83,000, 20% have a hit. Calls of active or inactive are those of the source. The calls were made as follows: active = growth percent below 10; inactive = the rest.
Outcome codes: 1 (active), 0 (inactive)

Compound	Label class
CCOC(=O)c1c(N)c(C#N)cn1Cc1ccc(Cl)cc1Cl	0
Cc1[nH]c(C(=O)Nc2ccc(S(=O)(=O)N3CCCCC3)cc2OCCOCCOCCOCCOCCOCCOCCOCCOCCOc2cc(S(=O)(=O)N3CCCCC3)ccc2NC(=O)c2[nH]c(C)c3c2CCCCC3=O)c2c1C(=O)CCCC2	1
CC(C)(C)OC(=O)NCc1ccc(CNc2c([N+](=O)[O-])cnc3ccccc23)cc1	0
COc1cc(/C=N\NC(=O)c2ccc3nc(-c4ccc(Br)cc4)[nH]c3c2)cc(OC)c1OC	0
COc1ccc(C2CC(c3cccc(OCCCCOc4cccc(C5=NN(C(C)=O)C(c6ccc(OC)cc6)C5)c4)c3)=NN2C(C)=O)cc1 (centres undefined)	0
O=C(/C=C/C=C/c1csc(Br)n1)NO	0
Cn1c(SCC(=O)c2ccco2)nc2ccccc2c1=O	0
CC(=O)Nc1ccccc1-c1nc2ccccc2s1	0
Cc1ccccc1NC(=O)Nc1nc2ccc([N+](=O)[O-])cc2s1	1

---

Let's look at some compounds and their measured growth.
Tested on: OVCAR-5 ovarian
Assay protocol: NCI-60 one-dose screen, 48 h (100 = growth as untreated, 0 = no growth, -100 = all killed)
Test context: 10 µM unless noted
This is part of a sample that, as a whole, favours compounds with a hit. Of some 83,000 tested, about 20% had one in any assay.
Metric: growth (%)

                                        mol  unit_of_measure  value
0  O=C(Nc1cc(C(F)(F)F)cc(C(F)(F)F)c1)Nc1ccc2oc(=O)ccc2c1                %     18
1  CCN(CC)S(=O)(=O)c1ccc(-c2nc(C(Cl)Cl)nc3cc(-c4ccc(F)cc4)nn23)cc1                %   51.6
2  Cc1cc2nc3c4cc(C#N)ccc4n(CCN(C)C)c3nc2cc1C                %    6.4
3  CCOC(=O)c1cccc(NC2=C(Cl)C(=O)c3nc(C)ccc3C2=O)c1                %    104
4  COc1ccccc1Cn1cc(C#N)c(N)c1C(=O)c1ccc(Br)cc1                %    104

---

Tested on: OVCAR-8 ovarian
Assay protocol: NCI-60 one-dose screen, 48 h
Test context: 10 µM unless noted
This is part of a sample that, as a whole, favours compounds with a hit. Of some 83,000 tested, about 20% had one in any assay. Calls of active or inactive are those of the source. How the source made its calls: active means growth percent below 10; inactive means the rest.
Possible outcomes: y = active, n = inactive

In [3]: df
Out[3]:
                                   compound  label_class
0  Cc1ccc(S(=O)(=O)c2nc(-c3ccc(F)cc3)oc2S(C)(=O)=O)cc1            n
1  N#C/C(=C\c1ccc(-c2ccc(Cl)cc2)o1)C(=O)Nc1ncc(Cc2ccc(Br)cc2)s1            y
2  COC(=O)CCCNCCCn1ccc2cc(NCc3cccc(-c4ccccc4)c3C)ccc21            n
3  C/C(CC1(O)C(=O)Nc2ccccc21)=N\O (stereo not given)            n
4  NCCNC(=O)c1cccc(COc2ccccc2NC(=O)c2cc(Cl)c(Cl)[nH]2)c1            n
5  CCCN1C=C/C(=C\C(=O)n2ccc3ccccc32)c2ccccc21            n
6  Cc1cc2nc3c4cc(C#N)ccc4n(CCN(C)C)c3nc2cc1C            y
7  O=C(COc1ccc(/C=C2\C(=O)Nc3ccc(Cl)cc32)cc1)Nc1ccc(Cl)cc1            n
8  Cc1ccc(NC2=C(Cl)C(=O)c3nc(C)ccc3C2=O)c(C)c1            n
9  Nn1c(=O)n(-c2cccc(C(F)(F)F)c2)c(=O)c2cc(-c3ccc(F)cc3F)ccc21            y
